Test system: HeLa cells
Assay: [3H] Adenosine uptake assay
Assay type: cell-based
Settings: Homo sapiens, HeLa, accumulation of tritiated adenosine into HeLa cells; compound concentration range 10 μM to 0.032 nM; read-out: ADU inhibition IC50 (adenosine uptake inhibition potency)
propertyMeasured: IC50 (µM)
Supply the numeric figure in µM, leaving out any unit text.

>  <molecule>
C[C@H]1CO[C@@H](c2nc(-c3ccc(C(=O)Nc4cc(C(F)(F)F)ccn4)cc3)c3c(N)nccn23)CN1C(=O)C12CC(C(=O)O)(C1)C2 [Example 175]

>  <IC50 / µM>
10

$$$$
>  <molecule>
CC1(C(=O)O)CCC(c2nc(-c3ccc(C(=O)Nc4cc(C5CC5)ccn4)cc3F)c3c(N)ncc(Cl)n23)CC1 (stereo not drawn) [Example 164]

>  <IC50 / µM>
6.17

$$$$

Lab note: next molecule to report on.
Req: Return value of IC50 for input CC1(C(=O)O)CCC(N2CCO[C@@H](c3nc(-c4ccc(C(=O)Nc5cc(C(F)(F)F)ccn5)cc4)c4c(N)nccn34)C2)CC1 (stereo partly drawn) [Example 176] , no commentary.
Resp: 1.32

###

Recorded measurements of pIC50, one per entry
Target: BTK enzyme (recombinant full-length BTK, hBTK) (Homo sapiens (Human))
Test: Btk enzyme activity assay, LANCE TR-FRET
Settings: 50 pM hBTK, 2 μM biotin-A5-peptide, 25 μM ATP; 60 minute compound & enzyme incubation; read-out: BTK binding IC50
Lab note: report pIC50 as minus log10 of the concentration in molar units, number only.

Completed entries (count: 5):
>  <molecule>
CC(C)(C(=O)O)C1CCC(c2nc(-c3ccc(C(=O)Nc4cc(C(F)(F)F)ccn4)cc3)c3c(N)nccn23)C1 (stereo not drawn) [Example 95]

>  <system>
BTK enzyme (recombinant full-length BTK, hBTK) (Homo sapiens (Human))

>  <measuredNumber>
8.77

$$$$
>  <molecule>
Nc1nccn2c([C@@H]3CCC[C@H](C(=O)O)C3)nc(-c3ccc(C(=O)Nc4cc(C5CC5)ccn4)cc3)c12

>  <system>
BTK enzyme (recombinant full-length BTK, hBTK) (Homo sapiens (Human))

>  <measuredNumber>
8.68

$$$$
>  <molecule>
CCOc1cc(C(=O)Nc2cc(C(F)(F)F)ccn2)cc(F)c1-c1nc([C@@]2(C)CC[C@](C)(C(=O)O)C2)n2ccnc(N)c12

>  <system>
BTK enzyme (recombinant full-length BTK, hBTK) (Homo sapiens (Human))

>  <measuredNumber>
9.33

$$$$
>  <molecule>
Nc1nccn2c([C@H]3CC[C@@H](C(=O)N4CCC[C@H]4C(=O)O)C3)nc(-c3ccc(C(=O)Nc4cc(C(F)(F)F)ccn4)cc3)c12

>  <system>
BTK enzyme (recombinant full-length BTK, hBTK) (Homo sapiens (Human))

>  <measuredNumber>
8.72

$$$$
>  <molecule>
Nc1nccn2c(C34CCCC(C(=O)O)(CC3)CC4)nc(-c3ccc(C(=O)Nc4cc(C(F)(F)F)ccn4)cc3)c12

>  <system>
BTK enzyme (recombinant full-length BTK, hBTK) (Homo sapiens (Human))

>  <measuredNumber>
9.64

$$$$

Lab note: next molecule to report on.
Req: Return value of pIC50 for input `Nc1nccn2c([C@H]3CN(C(=O)C4(C(=O)O)CCC4)CCO3)nc(-c3ccc(C(=O)Nc4cc(C(F)(F)F)ccn4)cc3F)c12` , no commentary.
Resp: 8.07

###

Target: BTK enzyme (recombinant full-length BTK, hBTK) (Homo sapiens (Human), UniProt Q06187)
Sequence (Q06187 whole entry): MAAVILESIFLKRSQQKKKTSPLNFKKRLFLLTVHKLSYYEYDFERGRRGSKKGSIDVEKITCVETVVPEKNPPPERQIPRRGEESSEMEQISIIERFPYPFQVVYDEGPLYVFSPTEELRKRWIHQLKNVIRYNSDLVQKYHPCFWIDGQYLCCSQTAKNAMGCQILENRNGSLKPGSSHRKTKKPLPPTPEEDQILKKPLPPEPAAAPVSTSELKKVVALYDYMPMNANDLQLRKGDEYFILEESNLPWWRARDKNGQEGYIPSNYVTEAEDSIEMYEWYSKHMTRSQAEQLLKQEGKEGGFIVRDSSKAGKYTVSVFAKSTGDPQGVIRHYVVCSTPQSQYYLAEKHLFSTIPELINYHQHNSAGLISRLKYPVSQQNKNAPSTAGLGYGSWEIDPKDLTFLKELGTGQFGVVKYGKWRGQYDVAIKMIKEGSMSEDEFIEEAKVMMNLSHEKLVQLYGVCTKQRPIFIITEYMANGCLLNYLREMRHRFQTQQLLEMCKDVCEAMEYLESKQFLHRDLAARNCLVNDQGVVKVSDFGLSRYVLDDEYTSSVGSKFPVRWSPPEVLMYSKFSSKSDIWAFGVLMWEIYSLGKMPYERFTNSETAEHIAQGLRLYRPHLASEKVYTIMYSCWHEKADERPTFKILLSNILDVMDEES
Test: Btk enzyme activity assay, LANCE TR-FRET
Type: biochemical
Settings: 50 pM hBTK, 2 μM biotin-A5-peptide, 25 μM ATP; 60 minute compound & enzyme incubation; read-out: BTK binding IC50
propertyMeasured: pIC50
Lab note: report pIC50 as minus log10 of the concentration in molar units, number only.

Completed entries (count: 4):
>  <compound>
Nc1nccn2c([C@H]3CC[C@@H](CC(=O)O)C3)nc(-c3ccc(C(=O)Nc4cc(C(F)(F)F)ccn4)cc3)c12

>  <pIC50>
9.59

$$$$
>  <compound>
C[C@]1(C(=O)O)CCN(c2nc(-c3ccc(C(=O)Nc4cc(C(F)(F)F)ccn4)cc3)c3c(N)nccn23)C1

>  <pIC50>
8.85

$$$$
>  <compound>
C[C@H]1CO[C@@H](c2nc(-c3ccc(C(=O)Nc4cc(C(F)F)ccn4)cc3F)c3c(N)nccn23)CN1[C@H]1CC[C@](C)(C(=O)O)CC1

>  <pIC50>
6.03

$$$$
>  <compound>
CC1(C(=O)O)CCC(c2nc(-c3ccc(C(=O)Nc4cc(C(F)(F)F)ccn4)cc3)c3c(N)ncc(Cl)n23)CC1 (stereo not shown)

>  <pIC50>
8.64

$$$$

Req: Return value of pIC50 for input `C[C@H]1CO[C@@H](c2nc(-c3ccc(C(=O)Nc4cc(C(F)(F)F)ccn4)cc3F)c3c(N)nccn23)CN1[C@H]1CC[C@](C)(C(=O)O)CC1` , no commentary.
Resp: 9.25

Req: Return value of pIC50 for input `CN1CC[C@@H](c2nc(-c3ccc(C(=O)Nc4cc(C(F)(F)F)ccn4)cc3)c3c(N)nccn23)C[C@H]1C(=O)O` , no commentary.
Resp: 8.92

Req: Return value of pIC50 for input `Nc1nccn2c([C@@H]3CC[C@H](C(=O)NC4(C(=O)O)CC4)C3)nc(-c3ccc(C(=O)Nc4cc(C(F)(F)F)ccn4)cc3)c12` , no commentary.
Resp: 8.68

Req: Return value of pIC50 for input `CCOc1cc(C(=O)Nc2cc(C(F)(F)F)ccn2)cc(F)c1-c1nc([C@]2(C)CC[C@@](C)(C(=O)O)CC2)n2ccnc(N)c12` , no commentary.
Resp: 9.02

Req: Return value of pIC50 for input `CCOc1cc(C(=O)Nc2cc(C(F)(F)F)ccn2)ccc1-c1nc([C@H]2CC[C@@H](C(C)C)[C@@H](C(=O)O)C2)n2ccnc(N)c12` , no commentary.
Resp: 8.70

Req: Return value of pIC50 for input Nc1nccn2c(C34C5C6C3C3C4C5C63C(=O)O)nc(-c3ccc(C(=O)Nc4cc(C5CC5)ccn4)cc3F)c12 (stereo not shown) , no commentary.
Resp: 9.27

Req: Return value of pIC50 for input `CCOc1cc(C(=O)Nc2cc(C(F)(F)F)ccn2)ccc1-c1nc([C@@H]2CCC[C@@](C(=O)O)(C(C)C)C2)n2ccnc(N)c12` , no commentary.
Resp: 7.41

Req: Return value of pIC50 for input `CC1(C)[C@H](C(=O)O)CC[C@@]1(C)c1nc(-c2ccc(C(=O)Nc3cc(C(F)(F)F)ccn3)cc2)c2c(N)nccn12` , no commentary.
Resp: 8.14

Req: Return value of pIC50 for input `CCOc1cc(C(=O)Nc2cc(C(F)(F)F)ccn2)ccc1-c1nc([C@@H]2CC[C@](C(=O)O)(C(C)C)C2)n2c(Cl)cnc(N)c12` , no commentary.
Resp: 7.66

###

Test system: HeLa cells
Test: [3H] Adenosine uptake assay
Assay type: cell-based
Conditions: Homo sapiens, HeLa, accumulation of tritiated adenosine into HeLa cells; compound concentration range 10 μM to 0.032 nM; read-out: ADU inhibition IC50 (adenosine uptake inhibition potency)
Recorded measurements of IC50, one per entry
Supply the numeric figure in µM, leaving out any unit text.

Completed entries (count: 3):
>  <structureSmilesString>
CC(C)[C@]1(C(=O)O)CC[C@H](c2nc(-c3ccc(C(=O)Nc4cc(C(F)(F)F)ccn4)cc3Cl)c3c(N)nccn23)C1

>  <unitDescriptor>
µM

>  <IC50>
3.24

$$$$
>  <structureSmilesString>
CC(C)(C(=O)O)N1CCO[C@@H](c2nc(-c3ccc(C(=O)Nc4cc(C(F)(F)F)ccn4)cc3)c3c(N)nccn23)C1

>  <unitDescriptor>
µM

>  <IC50>
0.665

$$$$
>  <structureSmilesString>
Nc1nccn2c(-c3ccc(F)c(C(=O)O)c3)nc(-c3ccc(C(=O)Nc4cc(C(F)(F)F)ccn4)cc3)c12

>  <unitDescriptor>
µM

>  <IC50>
10

$$$$

Lab note: next compound to report on.
Req: Return value of IC50 for input `Nc1nccn2c(N3CC[C@@H](C(=O)O)C3)nc(-c3ccc(C(=O)Nc4cc(C(F)(F)F)ccn4)cc3)c12` , no commentary.
Resp: 4.7

###

Molecular target: BTK enzyme (recombinant full-length BTK, hBTK) (Homo sapiens (Human))
Test: Btk enzyme activity assay, LANCE TR-FRET
Settings: 50 pM hBTK, 2 μM biotin-A5-peptide, 25 μM ATP; 60 minute compound & enzyme incubation; read-out: BTK binding IC50
We label by threshold. Values of IC50 strictly beneath 0.7 nM are TRUE. Values of 0.7 nM and up are FALSE.

>  <compound>
CCOc1cc(C(=O)Nc2cc(C(F)(F)F)ccn2)ccc1-c1nc(C23CCC(C(=O)O)(CC2)CC3)n2c(F)cnc(N)c12

>  <system>
BTK enzyme (recombinant full-length BTK, hBTK) (Homo sapiens (Human))

>  <categoryLabel>
FALSE

$$$$
>  <compound>
N#Cc1ccnc(NC(=O)c2ccc(-c3nc(C45C6C7C4C4C5C6C74C(=O)O)n4ccnc(N)c34)c(F)c2)c1 (stereo not drawn)

>  <system>
BTK enzyme (recombinant full-length BTK, hBTK) (Homo sapiens (Human))

>  <categoryLabel>
TRUE

$$$$
>  <compound>
C[C@@]1(C(=O)O)CCC[C@@](C)(c2nc(-c3ccc(C(=O)Nc4cc(C(F)(F)F)ccn4)cc3)c3c(N)nccn23)C1 [Example 138]

>  <system>
BTK enzyme (recombinant full-length BTK, hBTK) (Homo sapiens (Human))

>  <categoryLabel>
TRUE

$$$$

Req: Bench note: check whether CCOc1cc(C(=O)Nc2cc(C(F)(F)F)ccn2)ccc1-c1nc(C2CCC(C)(C(=O)O)CC2)n2c(Cl)cnc(N)c12 (stereo not drawn) shows IC50 below 0.7 nM
Resp: FALSE

Req: Bench note: check whether `C[C@@]1(C(=O)O)CC[C@@](C)(c2nc(-c3ccc(C(=O)Nc4cc(C(F)(F)F)ccn4)cc3)c3c(N)nccn23)C1` shows IC50 below 0.7 nM
Resp: FALSE

Req: Bench note: check whether `CCOc1cc(C(=O)Nc2cc(C(F)(F)F)n(C)n2)ccc1-c1nc([C@H]2CC[C@@](C(=O)O)(C(C)C)C2)n2ccnc(N)c12` shows IC50 below 0.7 nM
Resp: FALSE
